Cited source for all entries: ChEMBL document CHEMBL1201861

- System: MPP-89;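 note: growth inhibition of human MPP-89 cells, read out with a cell viability assay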
- Assay protocol: cells
- Assay type: functional, cell-based, Homo sapiens
- Test settings: Homo sapiens, MPP-89
- Description: SANGER: Inhibition of human MPP-89 cell growth in a cell viability assay.
Answer each item with its documented pIC50.
In simple prose, pIC50 is minus the logarithm base ten of a concentration in moles per litre.

I would be grateful if you could share the reported pIC50 for Cc1ccc(C(=O)Nc2ccc(CN3CCN(C)CC3)c(C(F)(F)F)c2)cc1C#Cc1cnc2cccnn12 [PONATINIB] . 6.77

I would be grateful if you could share the reported pIC50 for CN(NC(=O)CC(=O)NN(C)C(=S)c1ccccc1)C(=S)c1ccccc1 [ELESCLOMOL] . 8.04

###

- Tested on: TE-1
- Assay protocol: cells
- Format: functional, cell-based, Homo sapiens
- Test settings: Homo sapiens, TE-1
- Description: SANGER: Inhibition of human TE-1 cell growth in a cell viability assay.
Observable: IC50

I would be grateful if you could share the reported IC50 for CN(C)CCOc1ccc(-c2nc(-c3ccncc3)c(-c3ccc4c(c3)CC/C4=N\O)[nH]2)cc1 [SB590885] . > 5000 nM

I would be grateful if you could share the reported IC50 for NC(=O)Nc1cc(-c2cccc(F)c2)sc1C(=O)N[C@H]1CCCNC1 [AZD-7762] . 1210 nM

I would be grateful if you could share the reported IC50 for CC1(C)CCC(c2ccc(Cl)cc2)=C(CN2CCN(c3ccc(C(=O)NS(=O)(=O)c4ccc(N[C@H](CCN5CCOCC5)CSc5ccccc5)c(S(=O)(=O)C(F)(F)F)c4)cc3)CC2)C1 [NAVITOCLAX] . > 2000 nM

I would be grateful if you could share the reported IC50 for CC1=C(/C=C/C(C)=C/C=C/C(C)=C/C(=O)O)C(C)(C)CCC1 [TRETINOIN] . > 10000 nM

I would be grateful if you could share the reported IC50 for O=C1NC(=O)c2c1c(-c1ccccc1Cl)cc1[nH]c3ccc(O)cc3c21 . > 2000 nM
